Molecular target: HIV-1 protease (wild type) (Human immunodeficiency virus type 1 group M subtype B)
Construct: made in house; host or cells: Escherichia coli
Experiment: Protease Inhibition Assay (Pepcleave), inhibition of microbial expressed HIV protease
Assay type: biochemical
Protocol: Assay for Inhibition of Microbial Expressed HIV Protease Inhibition studies of the reaction of the protease (which was expressed in Eschericia coli) with a peptide substrate [Val-Ser-Gln-Asn-(betanaphtyl)Ala-Pro-Ile-Val]. […] The product formation is determined after separation of product and substrate on a Zorbax Eclipse XDB-C18 column connected to an Agilent 1100 high performance liquid chromatography system with fluorescence detection (excitation 270 nanometer and emission 330 nanometer). […]
valueKind: IC50 (nM)

{"compound": "[2H]C([2H])([2H])C([2H])(C([2H])([2H])[2H])C([2H])([2H])N([C@H](CO)CCc1ccccc1NC(=O)[C@@H](NC(=O)OC)C(c1ccccc1)c1ccccc1)S(=O)(=O)c1ccc2ncsc2c1 [Example 8]", "valueUnit": "nM", "result": 1.7}
{"compound": "COC(=O)N[C@H](C(=O)Nc1ccccc1CC[C@@H](CO)N(Cc1cnoc1)S(=O)(=O)c1ccc(N)cc1)C(c1ccccc1)c1ccccc1 [Example 4]", "valueUnit": "nM", "result": 0.2}
{"compound": "COC(=O)N[C@H](C(=O)Nc1ccccc1CC[C@@H](CO)N(Cc1cn(C)nc1C)S(=O)(=O)c1ccc2ncsc2c1)C(c1ccccc1)c1ccccc1 [Example 11]", "valueUnit": "nM", "result": 0.05}

----------
Listed molecules paired with reported pIC50
biological target: HIV-1 protease (wild type) (Human immunodeficiency virus type 1 group M subtype B, UniProt P04585); construct: made in house; host or cells: Escherichia coli; experiment: Protease Inhibition Assay (Pepcleave), inhibition of microbial expressed HIV protease; assay type: biochemical; details: wild-type HIV-1 protease; mean of at least two independent experiments; read-out: Pepcleave Enzyme inhibition IC50
pIC50: −log10 of the molar value.
valueKind: pIC50

{"molecule": "COC(=O)N[C@@H](Cc1ccccc1Cl)C(=O)Nc1ccccc1CC[C@@H](CO)N(CCC(C)C)S(=O)(=O)c1ccc2ncsc2c1", "result": 8.09}
{"molecule": "COC(=O)N[C@H](C(=O)Nc1cc(F)ccc1CC[C@@H](CO)N(CC1CC(F)(F)C1)S(=O)(=O)c1ccc2ncsc2c1)C(c1ccccc1)c1ccccc1", "result": 8.72}
{"molecule": "COC(=O)N[C@H](C(=O)Nc1cnccc1CC[C@@H](CO)N(Cc1cncnc1C)S(=O)(=O)c1ccc2ncsc2c1)C(c1ccccc1)c1ccccc1", "result": 8.46}
{"molecule": "COC(=O)N[C@H](C(=O)Nc1ccccc1CC[C@@H](CO)N(CCC(C)C)S(=O)(=O)c1ccc(N)cc1)C(c1ccccc1)c1ccccc1", "result": 10.70}
{"molecule": "COC(=O)N[C@H](C(=O)Nc1ccccc1S(=O)(=O)C[C@@H](CO)N(CCC(C)C)S(=O)(=O)c1ccc(N)cc1)C(c1ccccc1)c1ccccc1", "result": 8.54}
{"molecule": "COC(=O)N[C@H](C(=O)Nc1c(SC[C@@H](CO)N(CCC(C)C)S(=O)(=O)c2ccc(N)cc2)cc[nH]c1=O)C(c1ccccc1)c1ccccc1", "result": 10.22}
{"molecule": "COC(=O)N[C@@H](Cc1ccccc1Cl)C(=O)Nc1ccccc1CC[C@@H](CO)N(Cc1cn(C)nc1C)S(=O)(=O)c1ccc2ncsc2c1", "result": 8.00}
{"molecule": "COC(=O)N[C@H](C(=O)Nc1cccnc1CC[C@@H](CO)N(Cc1cnoc1)S(=O)(=O)c1ccc2ncsc2c1)C(c1ccccc1)c1ccccc1", "result": 8.64}
{"molecule": "COC(=O)N[C@H](C(=O)Nc1ccccc1[S+]([O-])C[C@@H](CO)N(CCC(C)C)S(=O)(=O)c1ccc(N)cc1)C(c1ccccc1)c1ccccc1 (stereo partly shown)", "result": 8.68}
{"molecule": "[2H]C([2H])([2H])C([2H])(C([2H])([2H])[2H])C([2H])([2H])N([C@H](CO)C([2H])([2H])C([2H])([2H])c1ccccc1NC(=O)[C@@H](NC(=O)OC)C(c1ccccc1)c1ccccc1)S(=O)(=O)c1ccc2ncsc2c1", "result": 8.77}
{"molecule": "COC(=O)N[C@@H](Cc1ccccc1Cl)C(=O)Nc1ccccc1CC[C@@H](CO)N(Cc1cn[nH]c1)S(=O)(=O)c1ccc(N)cc1", "result": 8.74}
{"molecule": "[2H]C([2H])([2H])C([2H])([2H])N([C@H](CO)Cc1cccc(NC(=O)[C@@H](NC(=O)OC)C(c2ccccc2)c2ccccc2)c1)S(=O)(=O)c1ccc(N)cc1", "result": 7.30}
{"molecule": "COC(=O)N[C@H](C(=O)Nc1ccccc1SC[C@@H](CO)N(CCC(C)C)S(=O)(=O)c1ccc(N)cc1)C(c1ccccc1)c1ccccc1", "result": 10.00}
{"molecule": "COC(=O)N[C@H](C(=O)Nc1ccccc1CC[C@@H](CO)N(CC(C)C)S(=O)(=O)c1ccc2ncsc2c1)C(c1ccccc1)c1ccccc1", "result": 8.80}
{"molecule": "[2H]C([2H])([2H])C([2H])(C([2H])([2H])[2H])C([2H])([2H])N([C@H](CO)CSc1ccncc1NC(=O)[C@@H](NC(=O)OC)C(c1ccccc1)c1ccccc1)S(=O)(=O)c1ccc2ncsc2c1", "result": 8.32}
{"molecule": "COC(=O)N[C@H](C(=O)Nc1cnccc1SC[C@@H](CO)N(Cc1cn(C)nc1C)S(=O)(=O)c1ccc2ncsc2c1)C(c1ccccc1)c1ccccc1", "result": 9.40}
{"molecule": "COC(=O)N[C@H](C(=O)Nc1cccc(C[C@@H](CO)N(CCC(C)C)S(=O)(=O)c2ccc(N)cc2)c1)C(c1ccccc1)c1ccccc1", "result": 8.43}
{"molecule": "[2H]C([2H])(c1ccccc1NC(=O)[C@@H](NC(=O)OC)C(c1ccccc1)c1ccccc1)C([2H])([2H])[C@@H](CO)N(CC(C)C)S(=O)(=O)c1ccc2ncsc2c1", "result": 8.43}
{"molecule": "COC(=O)N[C@H](C(=O)Nc1ccccc1CC[C@@H](CO)N(CC1CC1)S(=O)(=O)c1ccc(N)cc1)C(c1ccccc1)c1ccccc1", "result": 9.70}
{"molecule": "COC(=O)N[C@H](C(=O)Nc1cnccc1SC[C@@H](CO)N(CC(C)C)S(=O)(=O)c1ccc2ncsc2c1)C(c1ccccc1)c1ccccc1", "result": 8.38}
{"molecule": "COC(=O)N[C@H](C(=O)Nc1cccnc1CC[C@@H](CO)N(Cc1cncnc1C)S(=O)(=O)c1ccc2ncsc2c1)C(c1ccccc1)c1ccccc1", "result": 8.38}
{"molecule": "COC(=O)N[C@H](C(=O)Nc1cccc(C[C@@H](CO)N(C(C)C)S(=O)(=O)c2ccc(N)cc2)c1)C(c1ccccc1)c1ccccc1", "result": 7.38}
